Biological target: HLA-E (HLA-E*01033-transfected K562) (Homo sapiens, UniProt P13747)
Construct: expressed in transfected cells; host or cells: K562 (K562/HLA-E, kept under G-418 selection)
Experiment: Peptide-HLA molecule binding assay (HLA-E stabilization)
Details: HLA-E Transfected K562 pulsed overnight at 26° C.
Returns one of Fulfilled or Not fulfilled; Fulfilled when MFI (HLA-E surface expression, anti-HLA-E mAb) is >= 8000.

>>> print(df.to_string())
                                        seq  qualitative_label
0  PEIVIYDYM (HIV-1 Pol derived peptide; MHCIb/E-binding antigen)      Not fulfilled
1  RIRTWKSLV (HIV-1 Pol derived peptide; MHCIb/E-binding antigen)      Not fulfilled
2  VMATRRNVL (MBt derived peptide) [reference compound]      Not fulfilled
3       TALSEGATP (MHCIb/E-binding antigen)          Fulfilled
